# Lookup of reported MIC keyed by entry
Tested on: Candida albicans
Assay: Lowest concentration required to inhibit 90-100% of the visible growth of Candida albicans
Format: functional
Form entry: value (µg/mL) — number only.

Query Smiles	Value Unit	MIC
C/C=C1\NC(=O)[C@H]([C@H](C)O)NC(=O)[C@H](CCN)NC(=O)[C@H](CCCCN)NC(=O)[C@H](CC(=O)O)NC(=O)[C@@H](CCN)NC(=O)[C@@H](NC(=O)C[C@H](O)CCCCCCCCCCCCCCC)COC(=O)[C@H]([C@H](O)CCl)NC(=O)[C@H]([C@H](O)C(=O)O)NC1=O	µg/mL	0.625
C/C=C1\NC(=O)[C@H]([C@H](C)O)NC(=O)[C@H](CCN)NC(=O)[C@H](CCCCN)NC(=O)[C@H](CC(=O)O)NC(=O)[C@@H](CCN)NC(=O)[C@@H](NC(=O)C[C@@H](O)CCCCCCCCCCCCCCC)COC(=O)[C@H]([C@H](O)CCl)NC(=O)[C@H]([C@H](O)C(=O)O)NC1=O	µg/mL	2.5

Attention now turns to another entry.
Any idea what its MIC is? The compound is "C/C=C1\NC(=O)[C@H]([C@H](C)O)NC(=O)[C@H](CCN)NC(=O)[C@H](CCCCN)NC(=O)[C@H](CC(=O)O)NC(=O)[C@@H](CCN)NC(=O)[C@@H](NC(=O)C[C@@H](O)CCCCCCCCCCCCCCCCC)COC(=O)[C@H]([C@H](O)CCl)NC(=O)[C@H]([C@H](O)C(=O)O)NC1=O"
5
